# target-of-assay: wild-type GT1a NS3/4A protease (UniProt P27958, C1185S, species not given)
# Construct: Ki (nM) GT1a WT NS3/4A Protease
# Type: biochemical, Hepatitis C virus
# conditions-used: read-out: Ki (nM) GT1a WT NS3/4A Protease; Table 1
As shown below, each of these compounds has a reported log10 Ki value.
measure: log10 Ki (log10 of the value in nM)

CCc1nc2ccccc2nc1O[C@@H]1C[C@H]2C(=O)N[C@]3(C(=O)NS(=O)(=O)C4CC4)C[C@H]3/C=C\CCCCC[C@H](NC(=O)OC3CCCC3)C(=O)N2C1 [Compound 22g] ... 0.30
COc1ccc2nc(Cl)c(O[C@@H]3C[C@H]4C(=O)N[C@]5(C(=O)NS(=O)(=O)C6(C)CC6)C[C@H]5/C=C\CCCCC[C@H](NC(=O)OC5CCCC5)C(=O)N4C3)nc2c1 [Compound 23c] ... -0.36
COc1ccc2nc(Cl)c(O[C@@H]3C[C@H]4C(=O)N[C@]5(C(=O)NS(=O)(=O)C6CC6)C[C@H]5/C=C\CCCCC[C@H](NC(=O)OC5CCCC5)C(=O)N4C3)nc2c1 [Compound 22c] ... -0.31
COc1ccc2nc(C(F)(F)F)c(O[C@@H]3C[C@H]4C(=O)N[C@]5(C(=O)NS(=O)(=O)C6CC6)C[C@H]5/C=C\CCCCC[C@H](NC(=O)OC5CCCC5)C(=O)N4C3)nc2c1 [Compound 22d] ... 0.88
COc1ccc2nc(C)c(O[C@@H]3C[C@H]4C(=O)N[C@]5(C(=O)NS(=O)(=O)C6(C)CC6)C[C@H]5/C=C\CCCCC[C@H](NC(=O)OC(C)(C)C)C(=O)N4C3)nc2c1 [Compound 19b] ... 0.56
COc1ccc2nc(C(C)C)c(O[C@@H]3C[C@H]4C(=O)N[C@]5(C(=O)NS(=O)(=O)C6CC6)C[C@H]5/C=C\CCCCC[C@H](NC(=O)OC5CCCC5)C(=O)N4C3)nc2c1 [Compound 22e] ... 0.16
COc1ccc2nc(C)c(O[C@@H]3C[C@H]4C(=O)N[C@]5(C(=O)NS(=O)(=O)C6CC6)C[C@H]5/C=C\CCCCC[C@H](NC(=O)OC5CCCC5)C(=O)N4C3)nc2c1 [Compound 22b] ... -0.03
CCc1nc2ccc(OC)cc2nc1O[C@@H]1C[C@H]2C(=O)N[C@]3(C(=O)NS(=O)(=O)C4CC4)C[C@H]3/C=C\CCCCC[C@H](NC(=O)OC(C)(C)C)C(=O)N2C1 ... 0.52
COc1ccc2nc(Cl)c(O[C@@H]3C[C@H]4C(=O)N[C@]5(C(=O)NS(=O)(=O)C6CC6)C[C@H]5/C=C\CCCCC[C@H](NC(=O)OC(C)(C)C)C(=O)N4C3)nc2c1 [Compound 18c] ... 0.03
CCc1nc2ccc(OC)cc2nc1O[C@@H]1C[C@H]2C(=O)N[C@]3(C(=O)NS(=O)(=O)C4CC4)C[C@H]3/C=C\CCCCC[C@H](NC(=O)OC3CCCC3)C(=O)N2C1 [Compound 22a] ... 0.09

###

# target-of-assay: GT1a D168A NS3/4A protease (UniProt P27958, C1185S/D1194A, species not given)
# Construct: Ki (nM) GT1a D168A NS3/4A Protease
# Format: biochemical, Hepatitis C virus
# conditions-used: read-out: Ki (nM) GT1a D168A NS3/4A Protease; Table 1
As shown below, each of these molecules has a reported Ki value.
measure: Ki

COc1ccc2nc(C(C)C)c(O[C@@H]3C[C@H]4C(=O)N[C@]5(C(=O)NS(=O)(=O)C6(C)CC6)C[C@H]5/C=C\CCCCC[C@H](NC(=O)OC(C)(C)C)C(=O)N4C3)nc2c1 [Compound 19e] ... 211 nM
CCc1nc2ccccc2nc1O[C@@H]1C[C@H]2C(=O)N[C@]3(C(=O)NS(=O)(=O)C4CC4)C[C@H]3/C=C\CCCCC[C@H](NC(=O)OC3CCCC3)C(=O)N2C1 [Compound 22g] ... 107 nM
CC(C)(C)OC(=O)N[C@H]1CCCCC/C=C\[C@@H]2C[C@@]2(C(=O)NS(=O)(=O)C2CC2)NC(=O)[C@@H]2C[C@@H](Oc3nc4ccccc4nc3-c3cccs3)CN2C1=O [Compound 18f, reference compound] ... 1820 nM
CCc1nc2ccc(OC)cc2nc1O[C@@H]1C[C@H]2C(=O)N[C@]3(C(=O)NS(=O)(=O)C4CC4)C[C@H]3/C=C\CCCCC[C@H](NC(=O)OC3CCCC3)C(=O)N2C1 [Compound 22a] ... 52.3 nM
COc1ccc2nc(C(C)C)c(O[C@@H]3C[C@H]4C(=O)N[C@]5(C(=O)NS(=O)(=O)C6CC6)C[C@H]5/C=C\CCCCC[C@H](NC(=O)OC5CCCC5)C(=O)N4C3)nc2c1 [Compound 22e] ... 161 nM
COc1ccc2nc(Cl)c(O[C@@H]3C[C@H]4C(=O)N[C@]5(C(=O)NS(=O)(=O)C6CC6)C[C@H]5/C=C\CCCCC[C@H](NC(=O)OC5CCCC5)C(=O)N4C3)nc2c1 [Compound 22c] ... 30.6 nM
COc1ccc2nc(C)c(O[C@@H]3C[C@H]4C(=O)N[C@]5(C(=O)NS(=O)(=O)C6CC6)C[C@H]5/C=C\CCCCC[C@H](NC(=O)OC(C)(C)C)C(=O)N4C3)nc2c1 [Compound 18b] ... 50.9 nM
CCc1nc2ccccc2nc1O[C@@H]1C[C@H]2C(=O)N[C@]3(C(=O)NS(=O)(=O)C4CC4)C[C@H]3/C=C\CCCCC[C@H](NC(=O)OC(C)(C)C)C(=O)N2C1 [Compound 18g] ... 190 nM
COc1ccc2nc(Cl)c(O[C@@H]3C[C@H]4C(=O)N[C@]5(C(=O)NS(=O)(=O)C6CC6)C[C@H]5/C=C\CCCCC[C@H](NC(=O)OC(C)(C)C)C(=O)N4C3)nc2c1 [Compound 18c] ... 39.8 nM
COc1ccc2nc(C)c(O[C@@H]3C[C@H]4C(=O)N[C@]5(C(=O)NS(=O)(=O)C6(C)CC6)C[C@H]5/C=C\CCCCC[C@H](NC(=O)OC5CCCC5)C(=O)N4C3)nc2c1 [Compound 23b] ... 36.3 nM
